# System: Malme-3M
# protocolNotes: NCI tumour cell line growth inhibition, 48 h
Calls of active or inactive are those of the source. Rule as the data show it: active = GI50 up to about 1.1 µM and inactive = higher.
recordedEndpoint: GI50

Cc1ccc(-n2cc(-c3ccc(Cl)cc3)c3c(NNC(=S)NCc4ccccc4)ncnc32)cc1 ... 20.3 µM (inactive)
CC(=O)CC(=O)CCCC(=O)Nc1ccc(Cl)cc1C ... > 100 µM (inactive)
Brc1ccc(/N=C/C=C(\Nc2ccc(Br)cc2)C23CC4CC(CC(C4)C2)C3)cc1 ... 19.1 µM (inactive)
CC(=O)OCC1(C)C(OC(C)=O)CCC2(C)C(CC(OC(C)=O)C3=CCOC3=O)C(O)(CO)CCC12 (configuration not stated) ... > 100 µM (inactive)

Please supply GI50 for each of the following items, keeping them in order.
1. COc1ccc2ccc([Se]c3ccc4ccc(OC)cc4c3)cc2c1
2. Nc1ccc(/N=N\c2ccc(-c3ccc(O)cc3)cc2)c2ccc(S(=O)(=O)O)cc12
3. CC#C[C@@]1(O)CCCCC1O (some centres not stated)
4. CCCCn1c2ccccc2c2ccc3c(c21)C(=O)C=CC3=O

## Result
> 100 µM (inactive)
> 100 µM (inactive)
> 100 µM (inactive)
> 100 µM (inactive)

----------
# Tested on: NCI-H226
# protocolNotes: NCI tumour cell line growth inhibition, 48 h
The source made the active and inactive calls. No stated cut-off is given here; in the data, active = GI50 up to about 1.1 µM and inactive = higher.
Write down the outcome that applies. Available outcomes: 1 for active, -1 for inactive

O=C(NCC(O)CNC(=O)C(F)(F)F)C(F)(F)F ... -1
Cc1ccccc1/C=N/C12CC3CC(CC(C3)C1)C2 ... -1
CCCCc1cc2c(cc1O)CCC1C2CC[C@@]2(C)C1CC[C@@H]2O (stereo not given in full) ... -1
Cc1cc(Cl)ccc1N1C(=O)C(=O)C(c2nc3ccccc3s2)/C(=N\NC(=O)c2ccccc2O)C1=O (stereo not given) ... -1
O=C1Sc2ccc(Br)cc2C(=O)Sc2ccccc21 ... -1

## Task Assay outcome for `COc1ccc(/C(Cl)=C(\C=O)c2ccc([N+](=O)[O-])cc2)cc1OC` : what was it?
## Result -1

## Task Assay outcome for `CCOC(=O)Nc1nc(-c2ccccc2)c(C)s1` : what was it?
## Result -1

## Task Assay outcome for `Brc1ccc(/N=C/C=C(\Nc2ccc(Br)cc2)C23CC4CC(CC(C4)C2)C3)cc1` : what was it?
## Result -1

## Task Assay outcome for Cc1ccccc1SC(/C=C/NNC1=NN=C(c2ccccc2)C(c2ccccc2)N1)c1ccccc1 (stereo not given) : what was it?
## Result -1

## Task Assay outcome for C=C(CC(NC(=O)c1ccc(C(CC)Cc2cnc3nc(N)nc(N)c3n2)cc1)C(=O)O)C(=O)O (stereo not given) : what was it?
## Result 1

----------
# System: SNB-19
# protocolNotes: NCI tumour cell line growth inhibition, 48 h
Active and inactive are the calls of the source. Rule as the data show it: active = GI50 up to about 1.1 µM and inactive = higher.
Write down the outcome that applies. Available outcomes: active, inactive

Would you please look over these solved cases?
S=c1sc2c(n1-c1ccccc1)N=CNC2S (centres undefined) ... inactive
CO/C(=N\N=C\c1ccc(Cl)cc1Cl)c1ccncc1 ... inactive
CN(C)c1nc(N)nc(CCl)n1 ... inactive
C=C1c2nc3ccccc3n2C=C(c2ccc(C)cc2)N1c1ccc(C)cc1 ... inactive
c1ccc2c(c1)c(N1CCCCC1)cc1nc3c(cc(N4CCCCC4)c4ccccc43)nc12 ... inactive

## Task Assay outcome for C=C(C)C(=O)OC1C[C@H](COC(C)=O)C2CC=C(C)C2C2OC(=O)C(=C)[C@H]12 (some centres undefined) : what was it?
## Result inactive

## Task Assay outcome for `COC(=O)[C@@]12CCCC(=O)[C@@H]1[C@H]1CCC[C@H]12` : what was it?
## Result inactive

## Task Assay outcome for `CCCC(=O)NC(Nc1ccc(F)cc1)(C(F)(F)F)C(F)(F)F` : what was it?
## Result inactive

## Task Assay outcome for O=C(CCN1CCCCC1CO)Nc1ccc2c(c1)C(=O)c1ccc(NC(=O)CCN3CCCCC3CO)cc1C2=O (centres undefined) : what was it?
## Result inactive

## Task Assay outcome for `Brc1ccc(/N=C/C=C(\Nc2ccc(Br)cc2)C23CC4CC(CC(C4)C2)C3)cc1` : what was it?
## Result inactive

## Task Assay outcome for `C#CC(=O)OCC#CCOC(=O)C#C` : what was it?
## Result inactive

## Task Assay outcome for `CCSCN(C)c1nc(N(C)C)nc(N(C)C)n1` : what was it?
## Result inactive

## Task Assay outcome for CS(=O)(=O)OCC1OC(n2ccc(NC(=O)c3ccccc3)nc2=O)CC1OS(C)(=O)=O (centres undefined) : what was it?
## Result inactive

## Task Assay outcome for CN1N=C(c2ccncc2)OC1c1ccc(Cl)c(Cl)c1 (centres undefined) : what was it?
## Result inactive

## Task Assay outcome for Cc1ccc(S(=O)(=O)NC(CCC(=O)NN)C(=O)NN)cc1 (centres undefined) : what was it?
## Result inactive

## Task Assay outcome for `O=c1oc2cccnc2n1CCN1CCN(c2ccc(Oc3ccccc3)cc2)CC1` : what was it?
## Result inactive

## Task Assay outcome for `O=S(=O)(O)CS(=O)(=O)OCCCl` : what was it?
## Result inactive

## Task Assay outcome for `CO[C@H]1[C@@H](O)[C@@H](O)O[C@@H](O[C@H]2CC[C@@]3(C)[C@H](CC[C@@H]4[C@@H]3[C@H](O)C[C@]3(C)[C@@H](C5=CC(=O)OC5)CC[C@]43O)C2)[C@@H]1O` : what was it?
## Result active

## Task Assay outcome for `O=C1/C(=C/c2c(Cl)[nH]c3ccccc23)c2ccccc2N1c1ccccc1` : what was it?
## Result inactive

----------
# Tested on: LOX IMVI
# protocolNotes: NCI tumour cell line growth inhibition, 48 h
Activity calls are given as the source filed them. Cut-off read from the data, not from the text of the source: active = GI50 up to about 1.1 µM and inactive = higher.
recordedEndpoint: GI50

O=C(CC1(O)C(=O)Nc2ccccc21)c1ccco1 (stereo not given) ... > 100 µM (inactive)

Please supply GI50 for each of the following items, keeping them in order.
1. Cc1ccc(-c2cc(=O)c3cc(C)c(C)c(C(=O)O)c3o2)cc1[N+](=O)[O-]
2. CCOC(=O)C(NC(=O)c1cccc(Cl)c1)(Nc1ccc(S(=O)(=O)Nc2cc(C)nc(C)n2)cc1)C(F)(F)F (stereo not given)

## Result
["> 100 µM (inactive)", "> 100 µM (inactive)"]

----------
# Test system: HL-60
# protocolNotes: NCI tumour cell line growth inhibition, 48 h
The source made the active and inactive calls. Cut-off read from the data, not from the text of the source: active = GI50 up to about 1.1 µM and inactive = higher.
recordedEndpoint: GI50

Here's what some known entries look like.
COc1ccc(/C(Cl)=C(\C=O)c2cc(OC)c(OC)c(OC)c2)cc1OC ... 5.78 µM (inactive)
CO/C(=N\N=C\c1ccc(Cl)cc1Cl)c1ccncc1 ... > 10 µM (inactive)
Oc1cc(O)c2c(c1)OC(c1ccc(O)c(O)c1)C(OC1(c3cc(O)c(O)c(O)c3)Oc3cc(O)cc(O)c3C(O)C1O)C2 (stereo not given) ... 21.7 µM (inactive)
O=C(NC(CS)C(=O)O)c1cccc2c(=O)c3ccccc3[nH]c12 (stereo not given) ... > 100 µM (inactive)

Please supply GI50 for each of the following items, keeping them in order.
1. O=C(C=P(c1ccccc1)(c1ccccc1)c1ccccc1)C12CC3CC(CC(C3)C1)C2
2. CCN(CC)CCCC(C)Nc1ccnc2cc(Cl)ccc12 (stereo not given) [CHLOROQUINE PHOSPHATE]
3. COCOc1cc(OC)ccc1C/C=N/O

## Result
1. 8.75 µM (inactive)
2. 13.3 µM (inactive)
3. > 100 µM (inactive)

----------
# Tested on: NCI-H23
# protocolNotes: NCI tumour cell line growth inhibition, 48 h
Active and inactive are the calls of the source. No stated cut-off is given here; in the data, active = GI50 up to about 1.1 µM and inactive = higher.
Write down the outcome that applies. Available outcomes: t (active), f (inactive)

Would you please look over these solved cases?
COc1cc2c(cc1OC)C(=O)/C(=C/c1ccccc1)CC2 ... f
CO[C@H]1[C@@H](O)[C@@H](O)O[C@@H](O[C@H]2CC[C@@]3(C)[C@H](CC[C@@H]4[C@@H]3[C@H](O)C[C@]3(C)[C@@H](C5=CC(=O)OC5)CC[C@]43O)C2)[C@@H]1O ... t
CCCCCCCCCCCCCCCCNc1nc(=O)n(C2CC(O)C(CO)O2)cc1F (configuration not stated) ... f
NCC(=O)C(O)C(O)C(O)CO (configuration not stated) ... f

## Task Assay outcome for C/C=C(/C)C(=O)O[C@@H]1CCN2CC[C@H](COC(=O)/C(=C/C)CO)C12 (some centres not stated) : what was it?
## Result f

## Task Assay outcome for Cc1cccc(C(C)(C)C)c1NC(=O)CC1Sc2ccccc2NC1=O (configuration not stated) : what was it?
## Result f

----------
# System: IGROV-1
# protocolNotes: NCI tumour cell line growth inhibition, 48 h
Active and inactive are the calls of the source. No stated cut-off is given here; in the data, active = GI50 up to about 1.1 µM and inactive = higher.
Write down the outcome that applies. Available outcomes: 1 (yes) (active), 0 (no) (inactive)

Would you please look over these solved cases?
Cn1c(N)nc(=O)c2c1N(C1OC(CO)C(O)C1O)CN2Cc1ccccc1 (stereo not given) ... 0 (no)
CCOC(=O)c1nc2ccc(C(F)(F)F)cc2nc1Nc1ccc(OC)cc1 ... 0 (no)

Please turn your attention to the following entry.
## Task Assay outcome for CCCOC(=O)C1CCC(=O)N1C(=O)C(Cl)Cl (stereo not given) : what was it?
## Result 0 (no)
